target: Ba/F3 cells with EGFR exon 20 NPG Ins D770_N771 (Homo sapiens, UniProt P00533, INS770NPG); assay: EGFR activity: Ba/F3 cell viability (CellTiter-Glo, 72 h), EGFR exon 20 NPG insertion; conditions: EGFR exon 20 NPG Ins D770_N771, cell viability, read-out: BaF3 NPG IC50
Sequence (P00533 with tags, fused parts or gaps INS770NPG): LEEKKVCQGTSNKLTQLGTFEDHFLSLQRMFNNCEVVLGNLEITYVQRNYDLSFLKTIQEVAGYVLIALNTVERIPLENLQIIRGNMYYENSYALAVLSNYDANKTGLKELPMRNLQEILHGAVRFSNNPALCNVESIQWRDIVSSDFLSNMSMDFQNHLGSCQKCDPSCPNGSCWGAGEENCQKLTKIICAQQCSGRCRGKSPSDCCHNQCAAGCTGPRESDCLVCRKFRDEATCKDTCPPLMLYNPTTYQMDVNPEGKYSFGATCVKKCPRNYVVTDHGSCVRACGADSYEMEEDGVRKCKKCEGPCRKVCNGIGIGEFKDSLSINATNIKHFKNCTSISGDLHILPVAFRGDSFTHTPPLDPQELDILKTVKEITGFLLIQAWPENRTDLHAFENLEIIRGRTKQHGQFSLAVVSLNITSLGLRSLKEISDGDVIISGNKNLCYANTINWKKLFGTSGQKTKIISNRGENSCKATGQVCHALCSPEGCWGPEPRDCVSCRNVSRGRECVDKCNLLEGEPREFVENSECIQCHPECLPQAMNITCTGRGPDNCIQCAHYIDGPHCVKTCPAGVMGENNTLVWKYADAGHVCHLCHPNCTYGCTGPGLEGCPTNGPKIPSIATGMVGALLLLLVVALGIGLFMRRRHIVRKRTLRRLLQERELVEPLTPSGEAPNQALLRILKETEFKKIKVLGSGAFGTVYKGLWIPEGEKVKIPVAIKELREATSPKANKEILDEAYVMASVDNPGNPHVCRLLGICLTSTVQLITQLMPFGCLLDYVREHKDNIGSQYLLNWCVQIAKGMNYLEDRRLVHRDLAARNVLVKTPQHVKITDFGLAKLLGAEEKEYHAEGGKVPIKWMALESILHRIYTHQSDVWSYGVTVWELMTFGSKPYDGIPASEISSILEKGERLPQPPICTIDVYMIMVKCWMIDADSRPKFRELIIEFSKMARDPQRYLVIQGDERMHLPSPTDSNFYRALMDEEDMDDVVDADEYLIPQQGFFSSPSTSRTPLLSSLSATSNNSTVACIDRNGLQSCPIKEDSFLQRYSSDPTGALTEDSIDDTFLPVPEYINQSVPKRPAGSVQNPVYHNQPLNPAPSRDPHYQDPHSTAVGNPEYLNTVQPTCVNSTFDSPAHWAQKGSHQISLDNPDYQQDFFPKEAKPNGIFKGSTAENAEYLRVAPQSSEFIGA
observable: IC50

INSERT INTO assay_data (compound, target_entity, observable, endpoint_value) VALUES
  ('COc1c(Cl)cccc1Nc1c(-c2ccncc2OC[C@@H]2CCCN2C(C)=O)[nH]c2c1C(=O)NCC2 [Compound 141a]', 'Ba/F3 cells with EGFR exon 20 NPG Ins D770_N771 (Homo sapiens, UniProt P00533, INS770NPG)', 'IC50', '> 1000 nM'),
  ('C=CC(=O)N1CC[C@@H]1[C@H](C)Oc1cnccc1-c1[nH]c2c(c1Nc1cccc(F)c1OC)C(=O)NCC2', 'Ba/F3 cells with EGFR exon 20 NPG Ins D770_N771 (Homo sapiens, UniProt P00533, INS770NPG)', 'IC50', '100 to 1000 nM'),
  ('C=CC(=O)N1[C@@H](C#Cc2cnccc2-c2[nH]c3c(c2Nc2cccc(F)c2OC)C(=O)NCC3)C[C@@H]2C[C@@H]21', 'Ba/F3 cells with EGFR exon 20 NPG Ins D770_N771 (Homo sapiens, UniProt P00533, INS770NPG)', 'IC50', '< 100 nM');

# per-item lookup of IC50; items listed below
1. COc1c(F)cccc1Nc1c(-c2ccncc2C#CC(C)(C)NC(=O)/C=C/CN2CCOCC2)[nH]c2c1C(=O)NCC2
2. CC#CC(=O)N1CCOC[C@H]1COc1cnccc1-c1[nH]c2c(c1Nc1cccc(Cl)c1OC)C(=O)NCC2
3. CC#CC(=O)N1CC[C@@H]1COc1cnccc1-c1[nH]c2c(c1Nc1cccc(F)c1Cl)C(=O)NCC2
4. C=CC(=O)N1[C@H](C)CC[C@H]1C#Cc1cnccc1-c1[nH]c2c(c1Nc1cccc(F)c1OC)C(=O)NCC2
5. COc1c(F)cccc1Nc1c(-c2ccncc2C#CC(C)(C)NC(=O)/C=C/CN2CC(OC)C2)[nH]c2c1C(=O)NCC2
6. COc1c(Cl)cc(F)cc1Nc1c(-c2ccncc2C#CC23CC(CN2C(=O)/C=C/CN(C)C)C3)[nH]c2c1C(=O)NCC2

["100 to 1000 nM", "< 100 nM", "< 100 nM", "< 100 nM", "< 100 nM", "< 100 nM"]

Below is a list of compounds. For each, state its recorded IC50.
1. COc1c(F)cccc1Nc1c(-c2ccncc2OCC2CCn3ccnc32)[nH]c2c1C(=O)NCC2 (stereo not shown)
2. C=CC(=O)N1[C@H](C)CC[C@@H]1C#Cc1cnccc1-c1[nH]c2c(c1Nc1cccc(Cl)c1OC)C(=O)NCC2
3. C=CC(=O)NC1(C#Cc2cnccc2-c2[nH]c3c(c2Nc2cccc(Cl)c2OC)C(=O)NCC3)CCC1

1. > 1000 nM
2. < 100 nM
3. < 100 nM

Count: 7. Required value per item: IC50.
1. C=CC(=O)N1CCC[C@H]1COc1cnccc1-c1[nH]c2c(c1Nc1cccc(F)c1C)C(=O)NCC2
2. COc1c(F)cccc1Nc1c(-c2ccncc2C#CC23CC(CN2C(=O)/C=C/CN(C)C)C3)[nH]c2c1C(=O)NCC2
3. C=CC(=O)N1CCOC[C@H]1COc1cnccc1-c1[nH]c2c(c1Nc1cccc(F)c1OC)C(=O)NCC2
4. COc1c(F)cccc1Nc1c(-c2ccncc2C#C[C@@]2(C)CCCN2C(=O)/C=C/CN2CC[C@H](OC)C2)[nH]c2c1C(=O)NCC2
5. COc1c(F)cccc1Nc1c(-c2ccncc2C#CC2(C)CCN2C(=O)/C=C/CN(C)C)[nH]c2c1C(=O)NCC2 (stereo not shown)
6. CC#CC(=O)N1CC[C@H]1C#Cc1cnccc1-c1[nH]c2c(c1Nc1cccc(Cl)c1OC)C(=O)NCC2
7. C=CC(=O)NC1(C#Cc2cnccc2-c2[nH]c3c(c2Nc2cccc(Cl)c2OC)C(=O)NCC3)CCN(C)CC1

< 100 nM
< 100 nM
< 100 nM
< 100 nM
> 1000 nM
< 100 nM
100 to 1000 nM

Consider the following items and state reported IC50 for each.
1. CC#CC(=O)N1CC[C@@]1(C)COc1cnccc1-c1[nH]c2c(c1Nc1cccc(F)c1OC)C(=O)NCC2
2. COc1c(F)cccc1Nc1c(-c2ccncc2OCc2cn3ccccc3n2)[nH]c2c1C(=O)NCC2
3. C=CC(=O)N1[C@H](COc2cnccc2-c2[nH]c3c(c2Nc2cccc(Cl)c2OC)C(=O)NCC3)C[C@H]1C
4. C=CC(=O)N1[C@H](C)CC[C@H]1C#Cc1cnccc1-c1[nH]c2c(c1Nc1cccc(Cl)c1OC)C(=O)NCC2
5. C=C(F)C(=O)NC(C)(C)C#Cc1cnccc1-c1[nH]c2c(c1Nc1cccc(Cl)c1OC)C(=O)NCC2
6. COc1c(Cl)cccc1Nc1c(-c2ccncc2C#C[C@H]2CN(C)CCO2)[nH]c2c1C(=O)NCC2

["100 to 1000 nM", "> 1000 nM", "< 100 nM", "< 100 nM", "< 100 nM", "< 100 nM"]
